- method summary: Half life at the ionic strength 1.0 M NaCl
- Format: ADME
readout label: half-life

Ask: Tell me its half-life given "CC(C)NC(=O)OCc1c(COC(=O)NC(C)C)c(-c2cc[n+](C)c(F)c2)n2c1CCC2.[I-]" as the entry.
Result: 1.65 h

###

- method summary: Half life at the buffer concentration of 0.05 M.
- Assay type: ADME
Catalogue of half-life values
Could you write the number and then its unit?

CC(C)NC(=O)OCc1c(COC(=O)NC(C)C)c(-c2ccn(C)c(=O)c2)n2c1CCC2    53.5 min

Ask: Tell me its half-life given "CC(C)NC(=O)OCc1c(COC(=O)NC(C)C)c(-c2cc[n+](C)c(F)c2)n2c1CCC2.[I-]" as the entry.
Result: 34.6 min
